Parameter: viability at 24 h, 500 µg/mL. Scope: all listed entries.
ASSAY_OVERVIEW: MTT cell viability (cytotoxicity) assay on L929 cells
Type: cell-based, mouse
CONDITIONS: mouse, L929 mouse fibroblast cells, 500.00 µg/mL, 24 h, % of untreated cells
# number only, unit % dropped from output

Known results for compounds:
SMILES_TEXT: Cc1cccc(NC(=S)NNC(=O)c2[nH]cnc2C)c1
RESULT_UNITS: %
viability at 24 h, 500 µg/mL: 40.7
--
SMILES_TEXT: Cc1ccc(NC(=S)NNC(=O)c2[nH]cnc2C)cc1Cl
RESULT_UNITS: %
viability at 24 h, 500 µg/mL: 10.4
--
SMILES_TEXT: Cc1nc[nH]c1C(=O)NNC(=S)Nc1ccccc1[N+](=O)[O-]
RESULT_UNITS: %
viability at 24 h, 500 µg/mL: 29.1

input: Bench note: what viability at 24 h, 500 µg/mL did Cc1ccc(NC(=S)NNC(=O)c2[nH]cnc2C)cc1 show?
output: 53

input: Data request, read-out viability at 24 h, 500 µg/mL, for COc1ccccc1NC(=S)NNC(=O)c1[nH]cnc1C
output: 53.6

input: For Cc1nc[nH]c1C(=O)NNC(=S)Nc1ccc([N+](=O)[O-])cc1 , what is its reported viability at 24 h, 500 µg/mL?
output: 23.2

###

Each entry below carries its reported melting point.

COMPOUND: Cc1ccccc1NC(=S)NNC(=O)c1[nH]cnc1C [Compound 16]
REPORTED_RESULT: 210 to 212 °C

COMPOUND: CCN(CC)c1ccc(NC(=S)NNC(=O)c2[nH]cnc2C)cc1 [Compound 20]
REPORTED_RESULT: 225 to 227 °C

Now let's try a different one.
input: # melting point lookup, item Cc1nc[nH]c1C(=O)NNC(=S)NCCCl [Compound 9]
output: 175 to 177 °C

###

READOUT_NAME: melting point

Example results:
SMILES_TEXT: Cc1nc[nH]c1C(=O)NNC(=S)Nc1ccc([N+](=O)[O-])cc1
REPORTED_RESULT: 235 to 237 °C

SMILES_TEXT: Cc1nc[nH]c1C(=O)NNC(=S)Nc1c(C(C)C)cccc1C(C)C
REPORTED_RESULT: 202 to 204 °C

SMILES_TEXT: COc1ccc(NC(=S)NNC(=O)c2[nH]cnc2C)cc1OC
REPORTED_RESULT: 223 to 225 °C

SMILES_TEXT: Cc1nc[nH]c1C(=O)NNC(=S)Nc1ccc(N(C)C)cc1
REPORTED_RESULT: 215 to 217 °C

SMILES_TEXT: Cc1cccc(NC(=S)NNC(=O)c2[nH]cnc2C)c1
REPORTED_RESULT: 193 to 195 °C

SMILES_TEXT: Cc1nc[nH]c1C(=O)NNC(=S)Nc1cccc(F)c1
REPORTED_RESULT: 191 to 192 °C

SMILES_TEXT: COc1cccc(NC(=S)NNC(=O)c2[nH]cnc2C)c1
REPORTED_RESULT: 196 to 198 °C

SMILES_TEXT: Cc1nc[nH]c1C(=O)NNC(=S)Nc1ccccc1[N+](=O)[O-]
REPORTED_RESULT: 215 to 217 °C

SMILES_TEXT: Cc1ccc(NC(=S)NNC(=O)c2[nH]cnc2C)cc1Cl
REPORTED_RESULT: 213 to 215 °C

Next up:
input: I am curious: what melting point value has been reported for Cc1nc[nH]c1C(=O)NNC(=S)Nc1cccc(Cl)c1 ?
output: 203 to 205 °C

Data credit: paper PMC6384730
